ASSAY TARGET: NLRP3 inflammasome (Homo sapiens)
TEST METHOD NOTES: IL-1β assay in IFN-γ-differentiated, LPS-primed, ATP-activated THP-1 cells (ELISA)
Assay type: cell-based
RECORDED CONDITIONS: 50 ng/mL LPS priming, 2.5 mM ATP activation, 2 hours
PARAMETER MEASURED: IC50 (nM)

a. Clc1ccc(-c2nnc(NC3CCN(CC4CC4)C3)c3ccccc23)cc1 (centres unmarked) [Example 161]
b. CN1C[C@H](F)C[C@@H](Nc2nnc(-c3ccc(C(F)(F)F)cc3O)c3c2COCC3)C1 [Example 234]
c. CN1CCC[C@@H](Nc2nnc(-c3ccc4c(c3)OCCO4)c3ccncc23)C1 [Example 26]
d. COc1ccc(-c2nnc(NCC3CCCCN3C)c3ccccc23)cc1 (centres unmarked) [Example 130]
e. CN1CCCC(Nc2nnc(-c3ccc(C4CC4)cc3)c3ccccc23)C1 (centres unmarked) [Example 16]
Task: Output the entries ranked by IC50 from maximum down to minimum. A ranking is expressed here by listing the labels in the requested order.
Result: d, a, c, e, b

I. COc1ccc(-c2nnc(N[C@@H]3C[C@@H](F)CN(C)C3)c3c2CCOC3)c(C(F)F)c1 [Example 206]
II. COC1(C)CC(Nc2nnc(-c3ccc(Cl)cc3)c3ccccc23)C1(C)C (centres unmarked) [Example 135]
III. COc1ccc(-c2nnc(N[C@@H]3CCCN(C)C3)c3cnccc23)cc1 [Example 35]
Task: Order the 3 molecules from highest to lowest IC50. Put the labels in the order asked and list them.
Result: II, I, III
(II: 4570 nM, I: 425 nM, III: 88 nM)

* * *

ASSAY TARGET: UniProt:Q96P20
TEST METHOD NOTES: IL-1β assay in IFN-γ-differentiated, LPS-primed, ATP-activated THP-1 cells (ELISA)
RECORDED CONDITIONS: 50 ng/mL LPS priming, 2.5 mM ATP activation, 2 hours
PARAMETER MEASURED: IC50 (nM)

P. CN1CC(Nc2nnc(-c3ccc(Cl)cc3)c3ccccc23)CC(F)(F)C1 (stereo not shown)
Q. C[C@]1(O)C[C@@H](Nc2nnc(-c3ccc(Cl)cc3O)c3cnccc23)C1
R. CN1CCC[C@@H](Nc2nnc(-c3ccc(OC(F)F)cc3)c3ccncc23)C1
S. Cc1ccc(-c2nnc(NC34CCC(O)(CC3)C4)c3c2CCOC3)c(O)c1
Task: Parameters: sort_field (IC50), sort_dir (desc). Respond with the label ranking, as requested.
Result: P, S, Q, R

* * *

ASSAY TARGET: NLRP3 inflammasome (Homo sapiens)
TEST METHOD NOTES: IL-1β assay in IFN-γ-differentiated, LPS-primed, ATP-activated THP-1 cells (ELISA)
RECORDED CONDITIONS: 50 ng/mL LPS priming, 2.5 mM ATP activation, 2 hours
pIC50: −log10 of the molar value.
PARAMETER MEASURED: pIC50

1) CN1CCC[C@@H](Nc2nnc(-c3ccc(Cl)cc3)c3ccccc23)C1 ... 7.51
2) COc1ccc(-c2nnc(N[C@@H]3CCCN(C)C3)c3c2CCOC3)cc1 ... 7.31
3) Cc1cc(Cl)ccc1-c1nnc(N[C@@H]2CCCN(C)C2)c2cnccc12 ... 7.47
4) COc1ccc(-c2nnc(N[C@H]3CC[C@](O)(C(F)(F)F)CC3)c3ccccc23)cc1 ... 5.52

A. Clc1ccc(-c2nnc(NC3CCCN(c4ccccn4)C3)c3ccccc23)cc1 (centres unmarked)
B. Cc1ccc(-c2nnc(N[C@@H]3C[C@@H](F)CN(C)C3)c3c2CCOC3)c(O)c1
C. CCN1C[C@H](F)C[C@@H](Nc2nnc(-c3ccc(OC)cc3)c3ccccc23)C1
D. CC(C)(C)c1ccc(-c2nnc(Nc3cccc(O)c3)c3ccccc23)cc1
Task: Number of compounds to sort: 4. Sort criterion: pIC50, ascending. Kindly provide the labels arranged according to the requested ordering.
Result: A, D, C, B

* * *

ASSAY TARGET: MDR1 (P-gp) (Homo sapiens, UniProt P08183)
Construct: expressed in transfected cells; host or cells: Madin-Darby Canine Kidney (MDCK) cells
Sequence (P08183 whole entry, species assumed): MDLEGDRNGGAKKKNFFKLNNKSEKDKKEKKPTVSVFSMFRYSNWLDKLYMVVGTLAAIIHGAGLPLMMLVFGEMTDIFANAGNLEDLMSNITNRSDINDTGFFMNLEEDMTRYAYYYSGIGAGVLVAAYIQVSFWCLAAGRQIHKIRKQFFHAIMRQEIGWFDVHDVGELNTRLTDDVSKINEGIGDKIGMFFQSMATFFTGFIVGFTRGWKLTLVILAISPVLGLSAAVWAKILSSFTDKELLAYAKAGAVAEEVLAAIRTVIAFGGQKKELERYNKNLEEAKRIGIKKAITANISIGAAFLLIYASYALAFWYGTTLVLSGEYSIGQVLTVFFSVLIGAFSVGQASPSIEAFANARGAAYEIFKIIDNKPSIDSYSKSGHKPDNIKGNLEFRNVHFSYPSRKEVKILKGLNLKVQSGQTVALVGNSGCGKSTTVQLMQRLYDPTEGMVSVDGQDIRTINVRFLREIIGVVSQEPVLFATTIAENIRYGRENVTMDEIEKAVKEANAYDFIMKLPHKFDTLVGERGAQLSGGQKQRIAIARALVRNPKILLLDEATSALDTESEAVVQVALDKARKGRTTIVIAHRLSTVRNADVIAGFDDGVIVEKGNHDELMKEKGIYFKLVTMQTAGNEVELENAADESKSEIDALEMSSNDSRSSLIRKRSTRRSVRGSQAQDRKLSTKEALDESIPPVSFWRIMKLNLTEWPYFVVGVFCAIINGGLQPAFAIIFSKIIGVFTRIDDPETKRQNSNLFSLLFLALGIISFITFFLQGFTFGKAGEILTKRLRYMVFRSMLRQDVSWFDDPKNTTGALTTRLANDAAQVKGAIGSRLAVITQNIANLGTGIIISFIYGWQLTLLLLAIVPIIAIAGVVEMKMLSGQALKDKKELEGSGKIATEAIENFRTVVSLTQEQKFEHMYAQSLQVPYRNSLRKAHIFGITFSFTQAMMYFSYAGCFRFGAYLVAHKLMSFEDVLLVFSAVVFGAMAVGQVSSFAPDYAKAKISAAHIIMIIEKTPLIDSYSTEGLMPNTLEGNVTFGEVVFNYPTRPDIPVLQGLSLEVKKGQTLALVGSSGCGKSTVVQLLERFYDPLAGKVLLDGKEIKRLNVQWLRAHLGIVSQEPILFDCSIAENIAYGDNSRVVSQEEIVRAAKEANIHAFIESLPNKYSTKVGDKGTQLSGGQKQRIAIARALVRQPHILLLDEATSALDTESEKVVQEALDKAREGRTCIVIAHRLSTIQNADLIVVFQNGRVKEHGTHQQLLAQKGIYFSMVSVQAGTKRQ
TEST METHOD NOTES: MDCK-MDR1 assay (apparent permeability and efflux ratio)
Assay type: in vitro ADME
RECORDED CONDITIONS: dog, pH 7.4; MDCK-MDR1, P-gp mediated efflux ratio; read-out: MDR1 ER
Description: Madine-Darby Canine Kidney (MDCK) cells transfected with Multidrug resistance protein 1 (MDR1) are maintained in accordance with the provider's instructions in Dulbecco's Modified Eagle media (DMEM, Fisher Scientific Cat #10569044). […] Apparent permeability (Papp) values and efflux ratio are calculated using the following equations: […]
PARAMETER MEASURED: efflux ratio at 60 min, 1 µM

1. Cc1ccc(-c2nnc(N[C@@H]3C[C@@H](F)CN(C)C3)c3c2COCC3)c(O)c1 ... 17
2. CN1C[C@H](F)C[C@@H](Nc2nnc(-c3ccc(C(F)(F)F)cc3O)c3c2COCC3)C1 ... 12

P. COc1ccc(-c2nnc(N[C@@H]3C[C@@H](F)CN(C)C3)c3c2CCOC3)c(O)c1
Q. CN1CCC[C@@H](Nc2nnc(-c3ccc(Cl)cc3O)c3c2COCC3)C1
R. CN1C[C@H](F)C[C@@H](Nc2nnc(-c3ccc(C(F)F)cc3O)c3c2COCC3)C1
Task: Hi! Can you put these in order of efflux ratio at 60 min, 1 µM, lowest number first? Lab note: record answer as labels in requested order.
Result: P, Q, R

* * *

ASSAY TARGET: NLRP3 inflammasome (Homo sapiens, UniProt Q96P20)
Sequence (Q96P20 whole entry): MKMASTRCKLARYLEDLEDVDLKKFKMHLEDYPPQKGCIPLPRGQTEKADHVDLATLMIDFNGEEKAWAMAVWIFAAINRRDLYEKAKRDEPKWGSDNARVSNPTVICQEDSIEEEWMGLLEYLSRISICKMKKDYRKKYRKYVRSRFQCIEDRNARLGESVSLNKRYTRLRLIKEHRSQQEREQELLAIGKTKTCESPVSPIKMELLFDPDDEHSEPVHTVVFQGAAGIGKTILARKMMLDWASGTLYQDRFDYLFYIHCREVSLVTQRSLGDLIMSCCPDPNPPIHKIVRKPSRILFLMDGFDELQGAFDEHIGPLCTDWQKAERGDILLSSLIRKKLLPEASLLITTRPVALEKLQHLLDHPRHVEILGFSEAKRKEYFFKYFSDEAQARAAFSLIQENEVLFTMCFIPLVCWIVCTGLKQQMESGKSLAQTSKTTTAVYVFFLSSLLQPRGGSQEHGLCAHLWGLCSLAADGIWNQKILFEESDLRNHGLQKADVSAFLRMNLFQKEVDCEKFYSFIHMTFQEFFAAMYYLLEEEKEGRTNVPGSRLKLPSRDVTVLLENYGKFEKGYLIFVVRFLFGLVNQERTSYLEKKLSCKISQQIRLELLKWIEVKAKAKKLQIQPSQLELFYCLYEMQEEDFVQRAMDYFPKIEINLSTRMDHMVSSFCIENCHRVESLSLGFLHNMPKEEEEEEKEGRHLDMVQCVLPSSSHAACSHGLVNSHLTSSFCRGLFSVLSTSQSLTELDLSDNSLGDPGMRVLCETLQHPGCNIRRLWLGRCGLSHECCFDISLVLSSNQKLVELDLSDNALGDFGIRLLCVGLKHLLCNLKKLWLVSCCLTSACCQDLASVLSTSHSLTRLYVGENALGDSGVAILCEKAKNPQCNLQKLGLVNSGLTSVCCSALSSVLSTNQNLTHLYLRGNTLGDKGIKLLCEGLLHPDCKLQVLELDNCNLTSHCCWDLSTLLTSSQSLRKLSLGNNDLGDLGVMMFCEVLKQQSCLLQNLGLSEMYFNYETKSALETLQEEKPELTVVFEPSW
TEST METHOD NOTES: IL-1β assay in IFN-γ-differentiated, LPS-primed, ATP-activated THP-1 cells (ELISA)
Type: cell-based
RECORDED CONDITIONS: 50 ng/mL LPS priming, 2.5 mM ATP activation, 2 hours
PARAMETER MEASURED: IC50 (µM)

1. COc1ccc(-c2nnc(NC3CCCC(C)(O)C3)c3ccccc23)cc1 (stereo not shown) [Example 137] ... 3.8

P. COc1cc(F)ccc1-c1nnc(N[C@@H]2C[C@@H](F)CN(C)C2)c2ccncc12 [Example 182]
Q. COc1ccc(-c2nnc(N[C@@H]3CCCN(C)C3)c3ccccc23)c(F)c1 [Example 53]
R. Cc1ccc(-c2nnc(N[C@@H]3CCCC[C@H]3O)c3c2COCC3)c(O)c1 [Example 230]
Task: Output the entries ranked by IC50 from maximum down to minimum. Please reply with the labels ordered as requested. Many thanks.
Result: P, R, Q
(P: 3.47 µM, R: 0.121 µM, Q: 0.04 µM)

* * *

ASSAY TARGET: NLRP3 inflammasome (Homo sapiens, UniProt Q96P20)
TEST METHOD NOTES: IL-1β assay in IFN-γ-differentiated, LPS-primed, ATP-activated THP-1 cells (ELISA)
RECORDED CONDITIONS: 50 ng/mL LPS priming, 2.5 mM ATP activation, 2 hours
PARAMETER MEASURED: IC50 (nM)

1) COc1ccc(-c2nnc(N[C@@H]3CCCN(CCF)C3)c3cnccc23)c(F)c1 ... 33
2) CC(=O)N1CCc2c(-c3ccc(Cl)cc3)nnc(NC3CCCN(C)C3)c2C1 (stereo not drawn) ... 955
3) FC(F)CN1CCC(Nc2nnc(-c3ccc(Cl)cc3)c3ccccc23)C1 (stereo not drawn) ... 2140
4) O[C@]1(C(F)(F)F)C[C@H](Nc2nnc(-c3ccc(Cl)cc3)c3ccccc23)C1 ... 933
5) CCN1CCCC1CNc1nnc(-c2ccc(OC)cc2)c2ccccc12 (stereo not drawn) ... 2750

I. Cc1cc2c(NC3CCCN(C)C3)nnc(-c3ccc(Cl)cc3)c2cn1 (stereo not drawn)
II. O[C@]1(C(F)(F)F)CCC[C@H](Nc2nnc(-c3ccc(Cl)cc3)c3ccccc23)C1
III. OC1CC2(C1)CC(Nc1nnc(-c3ccc(Cl)cc3)c3ccccc13)C2 (stereo not drawn)
Task: # rank by IC50, ascending (min first) Provide the labels, sequenced as the question asks.
Result: I, III, II

A. CN1CCC[C@@H](Nc2nnc(-c3ccc(C(F)F)cc3)c3ccncc23)C1
B. CN1CCCC(Nc2nnc(-c3ccc(Cl)cc3)c3ccccc23)C1 (stereo not drawn)
C. CN1CCCC(Nc2nnc(-c3ccc(Cl)cc3)c3c2CN(S(C)(=O)=O)CC3)C1 (stereo not drawn)
Task: Thanks in advance: please rank these 3 entries by IC50, highest to lowest. Please list the labels in the order you were asked to rank them.
Result: C, A, B
(C: 1780 nM, A: 77 nM, B: 47 nM)

* * *

ASSAY TARGET: NLRP3 inflammasome (Homo sapiens, UniProt Q96P20)
TEST METHOD NOTES: IL-1β assay in IFN-γ-differentiated, LPS-primed, ATP-activated THP-1 cells (ELISA)
RECORDED CONDITIONS: 50 ng/mL LPS priming, 2.5 mM ATP activation, 2 hours
Procedure: Monocytic THP-1 cells (ATCC: TIB-202) are maintained in accordance with the provider's instructions in RPMI media (Life Technologies, Cat #A10491-01); RPMI is supplemented with 10% heat inactivated fetal bovine serum (Hyclone Cat #SH30396.03). […] At the end of the incubation period, 40 μL supernatant is removed, and […] are monitored using an ELISA (Human […], R&D systems, Cat #DY201) in accordance with the manufacturer's instructions. […]
PARAMETER MEASURED: IC50 (nM)

1) CC(=O)N1CCC(Nc2nnc(-c3ccc(Cl)cc3)c3ccccc23)C1 (stereo not drawn) ... 4790
2) C[C@]1(O)C[C@@H](Nc2nnc(-c3ccc(Cl)cc3O)c3ccncc23)C1 ... 10
3) Clc1ccc(-c2nnc(NC3CCN(Cc4ccccc4)CC3)c3ccccc23)cc1 ... 3020
4) O[C@H]1C[C@@H](Nc2nnc(-c3ccc(Cl)cc3)c3ccccc23)C1 ... 2300
5) Oc1cc(Cl)ccc1-c1nnc(NC23CCC(O)(CC2)C3)c2cnccc12 ... 5
6) Oc1cccc(Nc2nnc(-c3ccc(C4(C(F)(F)F)CC4)cc3)c3ccccc23)c1 ... 1410
7) COc1cc(Cl)ccc1-c1nnc(NC2CCCN(C)C2)c2ccncc12 (stereo not drawn) ... 3090
8) Cc1ccccc1-c1nnc(NC2CCCN(C)C2)c2ccccc12 (stereo not drawn) ... 2570
9) CN1C[C@H](F)C[C@@H](Nc2nnc(-c3ccc(OC(F)(F)F)cc3F)c3c2CCOC3)C1 ... 556
10) CCN1CCCC(Nc2nnc(-c3ccc(Cl)cc3)c3ccccc23)C1 (stereo not drawn) ... 18

I. CC(=O)N1CCc2c(NC3CCCN(C)C3)nnc(-c3ccc(Cl)cc3)c2C1 (stereo not drawn)
II. COc1ccc(-c2nnc(N[C@@H]3CCCN(C)C3)c3ccnc(C)c23)c(O)c1
Task: Returns the identifier with the smallest measured IC50 among I and II . Respond with the label that goes with your answer.
Result: II
(II: 5 nM, I: 1660 nM)
